- Assay name: Liver Microsome Stability Assay (mouse)
- Experimental setup: mouse liver microsomes, with NADPH, 1.0 uM compound
Note to self: use met only for Liver Microsome Stability (Multiple Species): Mouse - % Remaining after 30 min w/NADPH readings below 7%; a reading exactly at 7% still gets not met.

Consider the following illustrative entries.
Molecule	Classification
O=C(Nc1nc([C@H]2CCCN2c2ccccc2)cs1)c1cccn1Cc1cc(F)nc(F)c1	not met
NS(=O)(=O)N1CC(Oc2ccc(N3CCC[C@@H]3c3csc(NC(=O)c4cccn4Cc4ccnc(F)c4)n3)cc2)C1	not met
Cc1c(/C=C/c2csc(NC(=O)c3cccn3Cc3ccnc(F)c3)n2)ncn1C(C)C	not met
C[C@H](CC#N)Cn1cccc1C(=O)Nc1nc([C@H]2CCCN2c2ccccc2)cs1	not met
O=C(Nc1ccc(N2CCC[C@@H]2c2csc(NC(=O)c3cccn3Cc3ccnc(F)c3)n2)cc1)O[C@@H]1CCOC1	not met
O=C(Nc1nc([C@H]2CCCN2c2ccc(C3CCCNC3)cc2)cs1)c1cccn1Cc1ccncc1 (stereo partly drawn)	not met
COCCOc1ccc(N2CCC[C@@H]2c2csc(NC(=O)c3cccn3Cc3ccnc(F)c3)n2)cc1	met
NCCOc1ccc(N2CCC[C@@H]2c2csc(NC(=O)c3cccn3Cc3ccnc(F)c3)n2)cc1	not met

INPUT: Quick check: does O=C(Nc1nc([C@H]2CCCN2c2ccccc2)cs1)c1cccn1Cc1ccc(F)cc1 have Liver Microsome Stability (Multiple Species): Mouse - % Remaining after 30 min w/NADPH under 7%?
OUTPUT: not met

INPUT: How about CCc1ccc(N2CCC[C@@H]2c2csc(NC(=O)c3cccn3Cc3ccnc(F)c3)n2)cc1 ?
OUTPUT: not met

INPUT: Same again, this time with O=C(Nc1nc([C@H]2CCCN2c2ccc([N+](=O)[O-])cc2)cs1)c1cccn1Cc1ccncc1
OUTPUT: met

These data points were gathered from patent US20230286973A1.
